meta.source: patent US9000043B2

target: human EP3 (isoform VI) (Homo sapiens (Human)); experiment: In vitro binding to human EP3 ([3H]-PGE2 displacement, membranes); details: HEK293 membranes, [3H]-PGE2, n = 1; read-out: hEP3, Ki
Sequence (P43115 other isoform, or with tags, fused parts or gaps): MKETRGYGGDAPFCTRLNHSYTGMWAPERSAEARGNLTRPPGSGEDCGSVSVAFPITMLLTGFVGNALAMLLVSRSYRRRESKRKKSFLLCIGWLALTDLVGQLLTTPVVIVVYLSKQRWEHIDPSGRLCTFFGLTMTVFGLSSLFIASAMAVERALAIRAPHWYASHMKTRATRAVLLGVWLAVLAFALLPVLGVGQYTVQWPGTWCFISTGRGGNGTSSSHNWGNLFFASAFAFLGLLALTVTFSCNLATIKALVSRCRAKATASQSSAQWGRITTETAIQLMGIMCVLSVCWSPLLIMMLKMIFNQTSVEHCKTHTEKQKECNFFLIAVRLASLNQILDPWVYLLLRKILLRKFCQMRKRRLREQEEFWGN
observation-type: Ki

I would be grateful if you could share the reported Ki for `CC(C)[C@@H](OCCOc1ccccc1)C(=O)N[C@@H](C)c1ccc(C(=O)O)cc1` . > 12.7 µM

====

target: human EP2 (Homo sapiens (Human), UniProt P43116)
Sequence (P43116 whole entry): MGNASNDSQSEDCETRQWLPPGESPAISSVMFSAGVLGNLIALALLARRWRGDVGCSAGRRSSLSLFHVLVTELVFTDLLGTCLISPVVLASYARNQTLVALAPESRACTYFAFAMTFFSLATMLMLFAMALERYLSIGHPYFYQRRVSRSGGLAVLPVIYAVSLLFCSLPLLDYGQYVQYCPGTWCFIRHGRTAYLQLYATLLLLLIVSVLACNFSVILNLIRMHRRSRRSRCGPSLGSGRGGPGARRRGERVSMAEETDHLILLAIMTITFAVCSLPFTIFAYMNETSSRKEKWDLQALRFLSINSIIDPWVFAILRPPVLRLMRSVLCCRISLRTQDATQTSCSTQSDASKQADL
observation-type: Ki
# include the unit after the value

Reported Ki for human EP2 (Homo sapiens (Human), UniProt P43116), given `CC(C)[C@@H](OCCOc1ccccc1)C(=O)N[C@@H](C)c1ccc(C(=O)O)cc1` ? 261 nM

====

molecular target: UniProt:P34995
Sequence (P34995 whole entry): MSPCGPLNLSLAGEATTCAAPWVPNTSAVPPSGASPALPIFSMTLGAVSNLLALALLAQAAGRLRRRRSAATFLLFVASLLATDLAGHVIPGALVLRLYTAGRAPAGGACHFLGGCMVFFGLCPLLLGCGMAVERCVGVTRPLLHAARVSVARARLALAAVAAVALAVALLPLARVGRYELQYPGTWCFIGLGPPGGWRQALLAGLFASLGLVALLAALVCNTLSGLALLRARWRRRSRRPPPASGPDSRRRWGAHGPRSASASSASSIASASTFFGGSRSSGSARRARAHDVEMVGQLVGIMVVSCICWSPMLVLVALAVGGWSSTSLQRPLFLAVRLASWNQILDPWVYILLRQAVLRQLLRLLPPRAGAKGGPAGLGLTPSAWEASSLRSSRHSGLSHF
observation-type: Ki

I would be grateful if you could share the reported Ki for CC(C)[C@@H](OCCOc1ccccc1)C(=O)N[C@@H](C)c1ccc(C(=O)O)cc1 [Example 1] . > 17.4 µM
